# Test system: Amaranthus retroflexus
# experiment.notes: Herbicidal activity against Amaranthus retroflexus assessed as inhibition of fresh weed plant weight at 187.5 g/ha using pre-emergence treatment protocol
# Format: functional
Y means recorded inhibition at 187.5 g/ha is 90% or above; N means it is below 90%.

C=CCN1C(=O)COc2cc(F)c(-n3nnc4c(cnn4CC=C)c3=O)cc21 | Y

## Task Decide: is the reported value of inhibition at 187.5 g/ha for `C#CCOc1cc(-n2nnc3c(cnn3CC=C)c2=O)c(F)cc1Cl` equal to or greater than 90%?
## Result N

## Task Threshold query (inhibition at 187.5 g/ha >= 90%) on `C#CCN1C(=O)COc2cc(F)c(-n3nnc4c(cnn4CCC)c3=O)cc21`
## Result N

## Task # bool: inhibition at 187.5 g/ha of `C=CCN1C(=O)COc2cc(F)c(-n3nnc4nn(CCC)cc4c3=O)cc21` >= 90%
## Result N

====

# Test system: Digitaria sanguinalis
# experiment.notes: Herbicidal activity against Digitaria sanguinalis (hairy crabgrass) assessed as inhibition of fresh weed plant weight at 187.5 g/ha using pre-emergence treatment protocol
# Assay type: functional
measured.endpoint: inhibition at 187.5 g/ha (%)
Numbers only, in %.

C=CCN1C(=O)COc2cc(F)c(-n3nnc4c(cnn4CCC)c3=O)cc21 | 37
CCCN1C(=O)COc2cc(F)c(-n3nnc4c(cnn4C)c3=O)cc21 | 14.2
C#CCN1C(=O)COc2cc(F)c(-n3nnc4c(cnn4C)c3=O)cc21 | 80

Report inhibition at 187.5 g/ha for every entry below.
1. C#CCN1C(=O)COc2cc(F)c(-n3nnc4nn(CCC)cc4c3=O)cc21
2. C#CCOc1cc(-n2nnc3nn(CC=C)cc3c2=O)c(F)cc1Cl
3. C=CCOc1cc(-n2nnc3c(cnn3CC=C)c2=O)c(F)cc1Cl

## Result
1: 0; 2: 2.2; 3: 0

FYI, the data here is from ChEMBL document CHEMBL3044834.
